system: RORγ ligand binding domain (LBD) (Homo sapiens)
Construct: made in house; host or cells: E. coli BL-21 (BL3), vector pDEST15
Sequence (P51449 269-508 limits assumed): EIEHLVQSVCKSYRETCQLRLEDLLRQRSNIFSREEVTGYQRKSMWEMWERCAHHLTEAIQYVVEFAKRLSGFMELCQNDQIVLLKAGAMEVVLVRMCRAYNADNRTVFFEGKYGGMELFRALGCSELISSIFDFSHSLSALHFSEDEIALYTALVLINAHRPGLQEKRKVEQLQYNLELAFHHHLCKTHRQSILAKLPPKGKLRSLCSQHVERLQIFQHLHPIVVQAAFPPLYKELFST
experimental protocol: TR-FRET Activity Assay (ligand sensing, RORγ-LBD / coactivator peptide interaction)
Type: biochemical
conditions used: read-out: RORγ activity in the TR-FRET Activity Assay (IC50 FRET), Group
pIC50: −log10 of the molar value.
metric name: pIC50

# query: pIC50 of entry Cc1c(S(N)(=O)=O)cc(-c2ccc(N3CCOCC3=O)c(C(C)(C)C)c2)n1CC1CCCCC1 [12/35] < 5.70

GET /values?readout=pIC50&item= Cc1c(S(N)(=O)=O)cc(-c2ccc(S(=O)(=O)N(C)C(C)(C)C)c(C(C)(C)C)c2)n1CC1CCCCC1 [22/2] > 6.30

What does the data say about its pIC50? Entry: Cc1c(S(N)(=O)=O)cc(-c2ccc(S(=O)(=O)NC(C)(C)C)c(C(F)F)c2)n1CC1CCCCC1 [12/29] > 6.30

Name the reported pIC50 value associated with the molecule Cc1c(S(N)(=O)=O)cc(-c2cc3c(c(C(C)(C)C)c2)OCCC3O)n1CC1CCCCC1 (centres unmarked) [12/45] < 5.70

Quick one: pIC50 of Cc1c(S(=O)(=O)NCC2COCCN2C)cc(-c2cc(C(C)(C)C)cc(C(C)(C)C)c2)n1CC1CCCCC1 (centres unmarked) [5/11] ? 5.70 to 6.30

The values you see were collected from patent US8946446B2.
